Where do the numbers come from? From PubChem BioAssay AID1159580.

Experiment: chemical genetic growth profiling, strain panel (AID 1159580);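 note: tested at 20 µM; growth read once vehicle control cultures reached saturation at 30 °C; 1 = growth at the plate median or of vehicle wells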
Details: S. cerevisiae deletion strains, growth OD, locus YPR135W, strain CTF4, stronger effect = lower value
The campaign covered roughly 5,500 compounds. About 2,000 (36%) were called active. Another 18% or so got no clear call; they are omitted. The list shows a part of the results.
QUANTITY_NAME: normalized growth
Lab note: jot the number down without any unit.

Recorded normalized growth of CCCOc1ccccc1/C=N\NC(=S)Nc1cccc(F)c1 , please.
0.987

Recorded normalized growth of O=C(O)c1cncc(C#Cc2ccccc2)c1 , please.
0.935

Recorded normalized growth of CCCCCCCCCCCCN1CNC(=S)NC1 , please.
0.382

Recorded normalized growth of COc1ccc(-n2c(=S)[nH]c(=O)c3cccnc32)cc1 , please.
1.05

Recorded normalized growth of C/C(=C\C(=O)Nc1ccc(F)cc1)Nc1ccc(F)cc1 , please.
1.05

Recorded normalized growth of O=C(CC1NCCN(Cc2ccccc2)C1=O)Nc1ccc(Cl)cc1 (configuration not stated) , please.
0.915

Recorded normalized growth of O=[N+]([O-])c1ccc(N2CCCCC2)nc1N1CCCCC1 , please.
0.587

====

Experiment: chemical genetic growth profiling, strain panel (AID 1159580)
Conditions: S. cerevisiae deletion strains, growth OD, locus YOR136W, strain idh2, stronger effect = lower value
Out of some 5,500 compounds screened, about 2,000 (36%) were called active. Not shown: some 18% with an inconclusive outcome. This is one part of the list.
normalized growth strictly under 1 means y; at 1 or over means n.

I'd appreciate it if you could check whether C[C@]12CCC(=O)C=C1C=CC1C2CC[C@@]2(C)C1CC[C@@]21CCC(=O)O1 (some centres not stated) has normalized growth smaller than 1.
y

I'd appreciate it if you could check whether O=C1C(Cl)=C(Cl)C(=O)C(Cl)=C1Cl has normalized growth smaller than 1.
y

I'd appreciate it if you could check whether CCCCCCCCCCC[C@@H](C[C@H]1OC(=O)[C@H]1CCCCCC)OC(=O)[C@@H](CC(C)C)NC=O has normalized growth smaller than 1.
n

====

I'd be grateful if you could share measured normalized growth for these entries.
Test: chemical genetic growth profiling, strain panel (AID 1159580);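 note: tested at 20 µM; growth read once vehicle control cultures reached saturation at 30 °C; 1 = growth at the plate median or of vehicle wells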
Conditions: S. cerevisiae deletion strains, growth OD, locus YHR013C, strain ard1, stronger effect = lower value
About 2,000 (36%) of roughly 5,500 compounds were called active. Inconclusive results (about 18%) are left out. This is one part of the list.
Lab note: jot the number down without any unit.

Recorded normalized growth of O=C1C(Cl)=C(Cl)C(=O)C(Cl)=C1Cl , please.
0.829

Recorded normalized growth of O=C(O)CCCc1ccc(N(CCCl)CCCl)cc1 , please.
0.956

Recorded normalized growth of Nc1nc(=S)c2[nH]cnc2[nH]1 , please.
0.93

Recorded normalized growth of O=c1c(-c2ccc(O)cc2)coc2cc(O)ccc12 , please.
0.959

Recorded normalized growth of N[C@@H](Cc1ccc(N(CCCl)CCCl)cc1)C(=O)O , please.
0.932

Recorded normalized growth of Oc1ccc2c(c1)O[C@H](c1ccc(O)c(O)c1)[C@@H](O)C2 , please.
1.02

Recorded normalized growth of CN1CC(=O)N=C1N , please.
1.06

Recorded normalized growth of C=C[C@@](C)(O)CCC1C(=C)C[C@H](OC(C)=O)C2C(C)(C)CCCC12C (some centres not stated) , please.
1.02

Recorded normalized growth of CN1C2CCC1CC(OC(c1ccccc1)c1ccccc1N)C2 (configuration not stated) , please.
0.979

Recorded normalized growth of O=C(/C=C/c1ccc(O)c(O)c1)OC(Cc1ccc(O)c(O)c1)C(=O)O (configuration not stated) , please.
0.999

Recorded normalized growth of O=c1cccc2ccc(O)c(O)c2c1O , please.
0.962

Recorded normalized growth of CN1C2CCC1CC(OC(c1ccccc1)c1ccccc1)C2 (configuration not stated) , please.
0.924

Recorded normalized growth of O=C(O)CCCc1ccccc1 , please.
1.01

Recorded normalized growth of NS(=O)(=O)c1cc2c(cc1Cl)NC=NS2(=O)=O , please.
0.966

Recorded normalized growth of Clc1ccc(C(OCCN2CCCCC2)c2ccccc2)cc1 (configuration not stated) , please.
0.895

Recorded normalized growth of CCCCCCCCCCC[C@@H](C[C@H]1OC(=O)[C@H]1CCCCCC)OC(=O)[C@@H](CC(C)C)NC=O , please.
1.03

Recorded normalized growth of COc1ccc2c(c1)OC1(O)COc3cc(OC)c(OC)cc3C1=C2 (configuration not stated) , please.
0.977

Recorded normalized growth of COc1ccc(C(=O)O)cc1OC , please.
0.978

Recorded normalized growth of O=S(=O)(O)CCS , please.
0.927

Recorded normalized growth of COc1ccc(-c2coc3cc(O)ccc3c2=O)c(OC)c1O , please.
0.933

Recorded normalized growth of O=C(/C=C/c1ccc(O)c(O)c1)OCCc1ccccc1 , please.
0.683

Recorded normalized growth of NCCc1cnc[nH]1 , please.
1.06

Recorded normalized growth of O=C1CCC(N2C(=O)c3ccccc3C2=O)C(=O)N1 (configuration not stated) , please.
1.04

Recorded normalized growth of CN(C)CCN(Cc1ccccc1)c1ccccn1 , please.
0.984

Recorded normalized growth of C=C1C2CC[C@@]3(C)[C@H](c4ccoc4)OC(=O)C[C@]13O[C@H]1CC(=O)C(C)(C)[C@H](C(OC(C)=O)C(=O)OC)[C@@]21C (some centres not stated) , please.
0.983

Recorded normalized growth of Oc1cc(O)c2c(c1)O[C@H](c1cc(O)c(O)c(O)c1)[C@H](O)C2 , please.
1.03

Recorded normalized growth of OCC(O)CN1CCN(c2ccccc2)CC1 (configuration not stated) , please.
0.953

Recorded normalized growth of COc1ccc2c(c1)OC/C(=C/c1ccc(OC)c(OC)c1)C2=O , please.
0.862

Recorded normalized growth of CCCCCCCCCCCCCc1ccco1 , please.
0.699

Recorded normalized growth of Cc1ccccc1C(OCCN(C)C)c1ccccc1 (configuration not stated) , please.
0.986

Recorded normalized growth of C=C[C@@](C)(O)CCC1C(=C)CCC2[C@@](C)(CO)CCC[C@]12C (some centres not stated) , please.
1.11

Recorded normalized growth of COc1cc([C@@H]2c3cc4c(cc3C(OC3O[C@@H]5COC(C)O[C@H]5[C@H](O)[C@H]3O)C3COC(=O)[C@@H]32)OCO4)cc(OC)c1O (some centres not stated) , please.
1.04

Recorded normalized growth of COc1ccc(-c2coc3cc(O)ccc3c2=O)cc1 , please.
0.977

Recorded normalized growth of NCCCS(=O)(=O)O , please.
1.02

Recorded normalized growth of COc1ccc2c(c1)OC/C(=C\c1ccc(OC)c(O)c1)C2=O , please.
0.783

Recorded normalized growth of Cn1c(=O)c2c(ncn2CC(O)CO)n(C)c1=O (configuration not stated) , please.
0.975

Recorded normalized growth of CN1CCC(OC(c2ccccc2)c2ccccc2)CC1 , please.
0.994

====

I'd be grateful if you could share measured normalized growth for these entries.
Assay: chemical genetic growth profiling, strain panel (AID 1159580);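 note: tested at 20 µM; growth read once vehicle control cultures reached saturation at 30 °C; 1 = growth at the plate median or of vehicle wells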
Conditions: S. cerevisiae deletion strains, growth OD, locus YLR342W, strain FKS1 (second series), stronger effect = lower value
The whole screen tested about 5,500 compounds, of which about 2,000 (36%) were called active. Inconclusive results (about 18%) are left out. Some of the results follow.
Lab note: jot the number down without any unit.

Recorded normalized growth of COc1ccc([C@H]2Oc3c(I)c(OC)cc(OC)c3C[C@@H]2O)cc1OC , please.
1.06

Recorded normalized growth of Oc1cc(O)c2c(c1)O[C@H](c1ccc(O)c(O)c1)[C@@H](O)C2 , please.
1.02

Recorded normalized growth of COc1ccc2c(c1)OC/C(=C/c1ccc(OC)c(OC)c1)C2=O , please.
0.809

====

I'd be grateful if you could share measured normalized growth for these entries.
Experiment: chemical genetic growth profiling, strain panel (AID 1159580);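 note: tested at 20 µM; growth read once vehicle control cultures reached saturation at 30 °C; 1 = growth at the plate median or of vehicle wells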
Conditions: S. cerevisiae deletion strains, growth OD, locus YEL003W, strain gim4, stronger effect = lower value
Among all 5,500 compounds or so, about 2,000 (36%) were called active. Inconclusive results (about 18%) are left out. This is one part of the list.
Lab note: jot the number down without any unit.

Recorded normalized growth of COc1cc([C@@H]2c3cc4c(cc3[C@@H](O)C3COC(=O)C32)OCO4)cc(OC)c1O (stereo partly drawn) , please.
0.997

Recorded normalized growth of COc1cc([C@@H]2c3cc4c(cc3C(OC3O[C@@H]5COC(C)O[C@H]5[C@H](O)[C@H]3O)C3COC(=O)[C@@H]32)OCO4)cc(OC)c1O (stereo partly drawn) , please.
1.04

Recorded normalized growth of Cn1c(=O)c2c(ncn2CC(O)CO)n(C)c1=O (stereo not drawn) , please.
0.981

Recorded normalized growth of O=C(O[C@@H]1Cc2c(O)cc(O)cc2O[C@@H]1c1cc(O)c(O)c(O)c1)c1cc(O)c(O)c(O)c1 , please.
0.85

Recorded normalized growth of CC[C@@H](C(=O)C(C)[C@@H](O)[C@H](C)CCc1ccc(C)c(O)c1C(=O)O)C1OC(CC)(C2CC[C@](O)(CC)[C@H](C)O2)C[C@@H]1C (stereo partly drawn) , please.
1.04

Recorded normalized growth of COc1ccc(C2CNC(=O)C2)cc1OC1CCCC1 (stereo not drawn) , please.
1.01

Recorded normalized growth of CN1CC(=O)N=C1N , please.
1.04

Recorded normalized growth of Cc1ncc(CNC(=O)N(CCCl)N=O)c(N)n1 , please.
1.01
